System: P. falciparum NF54
assayNotes: In vitro microplate assay against P. falciparum NF54 (3H-hypoxanthine incorporation)
Format: cell-based, Plasmodium falciparum
measurementSetup: Plasmodium falciparum, NF54, chloroquine sensitive strain NF54, erythrocytic stages; average of four determinations; read-out: PfNF54 IC50
measureName: pIC50
// pIC50 here means minus log10 of the molar concentration (mol/L)

Entry under review: "CC(C)(C)C(=O)N1CCN(c2ccccc2NC(=O)c2cccc([N+](=O)[O-])c2Oc2ccc(F)cc2)CC1" . Reported pIC50?
5.58

# query: pIC50 of entry "CC(C)(C)OC(=O)N1CCN(c2ccccc2NC(=O)c2ccccc2Oc2ccccc2)CC1"
5.95

Find the recorded pIC50 belonging to "CC(C)(C)OC(=O)N1CCN(c2ccccc2NC(=O)c2cccc(C(F)(F)F)c2Sc2ccc(F)cc2)CC1" and report it.
6.71

----------
Please go through the items and note down their IC50.
System: P. falciparum NF54
assayNotes: In vitro microplate assay against P. falciparum NF54 (3H-hypoxanthine incorporation)
Assay type: cell-based, Plasmodium falciparum
measurementSetup: chloroquine sensitive strain NF54, erythrocytic stages; average of four determinations; read-out: PfNF54 IC50
Note: unit nM is implicit; provide only the numeric part.

May I ask what IC50 has been recorded for CC(C)(C)OC(=O)N1CCN(c2ccc(NC(=O)c3cccc(C(F)(F)F)c3Nc3ccccc3)cc2)CC1 [Compound 41] ?
634

// query IC50 value for entry CC(C)(C)OC(=O)N1CCN(c2ccccc2NC(=O)c2cccc(C(F)(F)F)c2Nc2ccccc2)CC1 [Compound 31]
614

For the molecule shown here, CC(C)(C)OC(=O)N1CCN(c2ccc(NC(=O)c3cccc(C(F)(F)F)c3Nc3ccc(F)cc3)cc2)CC1 [Compound 42] , give the reported IC50.
539

Bench note: what IC50 did CC(C)(C)OC(=O)N1CCN(c2ccccc2NC(=O)c2cccc(C(F)(F)F)c2Nc2ccc(F)cc2)CC1 [Compound 32] show?
636

----------
assayNotes: Parallel artificial membrane permeability assay (PAMPA)
measurementSetup: PAMPA, PBS pH 7.4, 200 µM, 5 h, room temperature
measureName: Pe

Which measured Pe value corresponds to Cn1c(=O)c2c(ncn2C)n(C)c1=O [Caffeine, reference compound] ?
8.00 10^−6 cm/s

Report Pe for "CC(C)(C)OC(=O)N1CCN(c2ccc(NC(=O)c3cccc(C(F)(F)F)c3Sc3ccc(F)cc3)cc2)CC1" please.
4.31 10^−6 cm/s

Endpoint output: Pe of CC(C)(C)OC(=O)N1CCN(c2ccccc2NC(=O)c2cccc(C(F)(F)F)c2Oc2ccc(F)cc2)CC1 [Compound 1, reference compound] . Value?
2.37 10^−6 cm/s

Recorded Pe for "CC(C)(C)C(=O)N1CCN(c2ccccc2NC(=O)c2cccc(F)c2Oc2ccc(F)cc2)CC1" , please?
0.00 10^−6 cm/s

Requested field: Pe. Item: "CC(C)(C)OC(=O)N1CCN(c2ccccc2NC(=O)c2cccc(C(F)(F)F)c2Sc2ccc(F)cc2)CC1"
3.77 10^−6 cm/s

----------
assayNotes: Parallel artificial membrane permeability assay (PAMPA)
measurementSetup: PAMPA, pH 7.4, Pe, PBS pH 7.4, 200 µM, 5 h, room temperature
Papp at 5 h, 200 µM below 2 ×10⁻⁶ cm/s gives 0.0; Papp at 5 h, 200 µM at or above it gives 1.0.

Hi team, for CC(C)(C)OC(=O)N1CCN(c2ccccc2NC(=O)c2cccc([N+](=O)[O-])c2Oc2ccc(F)cc2)CC1 [Compound 28] , is the recorded Papp at 5 h, 200 µM at or above 2 ×10⁻⁶ cm/s?
0.0

Does the reported Papp at 5 h, 200 µM for CC(C)(C)OC(=O)N1CCN(c2ccccc2NC(=O)c2cccc(N)c2Oc2ccc(F)cc2)CC1 [Compound 46] fall at or above the 2 ×10⁻⁶ cm/s mark?
0.0

Could you please find out whether CC(C)(C)OC(=O)N1CCN(c2ccc(NC(=O)c3ccccc3Oc3ccc(F)cc3)cc2)CC1 [Compound 36] has Papp at 5 h, 200 µM that meets 2 ×10⁻⁶ cm/s or exceeds it?
1.0

Confirm if Papp at 5 h, 200 µM reported for the compound CC(C)(C)OC(=O)N1CCN(c2ccccc2NC(=O)c2cccc(C(F)(F)F)c2Nc2ccc(F)cc2)CC1 [Compound 32] is 2 ×10⁻⁶ cm/s or above.
0.0

Please tell me: is the compound CC(C)(C)C(=O)N1CCN(c2ccc(NC(=O)c3ccccc3Oc3ccc(F)cc3)cc2)CC1 [Compound 43] at or over 2 ×10⁻⁶ cm/s in terms of Papp at 5 h, 200 µM?
0.0

Could you please find out whether CC(C)(C)OC(=O)N1CCN(c2ccc(NC(=O)c3cccc(C(F)(F)F)c3Nc3ccc(F)cc3)cc2)CC1 [Compound 42] has Papp at 5 h, 200 µM that meets 2 ×10⁻⁶ cm/s or exceeds it?
0.0

Record CC(C)(C)OC(=O)N1CCN(c2ccc(NC(=O)c3cccc(C(F)(F)F)c3Sc3ccc(F)cc3)cc2)CC1 [Compound 39] ; criterion: Papp at 5 h, 200 µM no lower than 2 ×10⁻⁶ cm/s. Met?
1.0

Could you please find out whether CC(C)(C)OC(=O)N1CCN(c2ccc(NC(=O)c3cccc(N)c3Oc3ccc(F)cc3)cc2)CC1 [Compound 47] has Papp at 5 h, 200 µM that meets 2 ×10⁻⁶ cm/s or exceeds it?
0.0

Textbook exercise: given the entry CC(C)(C)OC(=O)N1CCN(c2ccc(NC(=O)c3cccc([N+](=O)[O-])c3Oc3ccc(F)cc3)cc2)CC1 [Compound 38] , state whether its Papp at 5 h, 200 µM is greater than or equal to 2 ×10⁻⁶ cm/s.
0.0

Decide: Papp at 5 h, 200 µM of CC(C)(C)OC(=O)N1CCN(c2ccc(NC(=O)c3cccc(F)c3Oc3ccc(F)cc3)cc2)CC1 [Compound 37] >= 2 ×10⁻⁶ cm/s?
0.0

State whether the measured Papp at 5 h, 200 µM reaches 2 ×10⁻⁶ cm/s, counting equality as reaching it, for CC(C)(C)OC(=O)N1CCN(c2ccc(NC(=O)c3ccccc3Oc3ccccc3)cc2)CC1 [Compound 40]
1.0

Textbook exercise: given the entry CC(C)(C)OC(=O)N1CCN(c2ccc(NC(=O)c3cccc(C(F)(F)F)c3Nc3ccccc3)cc2)CC1 [Compound 41] , state whether its Papp at 5 h, 200 µM is greater than or equal to 2 ×10⁻⁶ cm/s.
0.0

Hi, just wondering whether CC(C)(C)C(=O)N1CCN(c2ccc(NC(=O)c3cccc(F)c3Oc3ccc(F)cc3)cc2)CC1 [Compound 45] shows Papp at 5 h, 200 µM of 2 ×10⁻⁶ cm/s or higher.
1.0

Check the entry CC(C)(C)OC(=O)N1CCN(c2ccccc2NC(=O)c2ccccc2Oc2ccccc2)CC1 [Compound 30] : does Papp at 5 h, 200 µM equal or exceed 2 ×10⁻⁶ cm/s?
1.0

Evaluate CC(C)(C)C(=O)N1CCN(c2ccccc2NC(=O)c2cccc([N+](=O)[O-])c2Oc2ccc(F)cc2)CC1 [Compound 34] : Papp at 5 h, 200 µM at minimum 2 ×10⁻⁶ cm/s?
1.0

Threshold query (Papp at 5 h, 200 µM >= 2 ×10⁻⁶ cm/s) on CC(C)(C)OC(=O)N1CCN(c2ccccc2NC(=O)c2cccc(C(F)(F)F)c2Nc2ccccc2)CC1 [Compound 31]
0.0

Dear colleague, could you confirm whether CC(C)(C)OC(=O)N1CCN(c2ccccc2NC(=O)c2cccc(C(F)(F)F)c2Sc2ccc(F)cc2)CC1 [Compound 29] has Papp at 5 h, 200 µM at or above 2 ×10⁻⁶ cm/s?
1.0
